# Read-out: Monocyte Chemoattractant Protein-1 (MCP1), CCL2 (gene 6347)
# measurement.notes: BSK_4H_MCP1: BioMAP Diversity Plus: 4H Assay for Monocyte Chemoattractant Protein-1 (MCP1) Biomarker Activity (AID 2283018)
# measurement.setup: primary human endothelial cells (HUVEC); actives raise or lower the signal
Activity calls are given as the source filed them. How the source made its calls: active means hit-call score of the fitted dose curve at least 0.9, where 1 is the maximum; inactive means score below 0.9.
observed.property: outcome

test.smiles | observed.property | experimental.value
COc1cc(OC)nc(Sc2cccc(Cl)c2C(=O)O)n1 | outcome | inactive
Nc1c(Cl)cc([N+](=O)[O-])cc1Cl | outcome | inactive
CN1COCN(Cc2cnc(Cl)s2)C1=N[N+](=O)[O-] | outcome | inactive
